Assay: Pharmacokinetics test in beagle dogs (capsule by gavage, plasma LC/MS/MS)
Format: in vivo
Conditions: dog, po, capsule by gavage, dose 2.5 mg/kg, plasma, read-out: Tmax
Protocol: The LC/MS/MS system used in the analysis consists of an Agilent 1200 Series vacuum degasser, binary pump, well-plate autosampler, thermostated column compartment, the Agilent G6430 Triple Quadrupole Mass Spectrometer with an electrosprayionization (ESI) source. Quantitative analysis was carried out using MRM mode. The parameters for MRM transitions are in the Table A. An Agilent XDB-C18, 2.1×30 mm, 3.5 μM column was used for the analysis. 5 μL of the samples were injected. […]
measurementKind: Tmax (h)

                                   compound  measurementkind  recordedvalue
0  COc1ncc(-c2ccn3ncc(C#N)c3c2)cc1NS(=O)(=O)c1ccc(F)cc1F [Compound of formula (I)]             Tmax           1.67

These entries and their values trace back to patent US11179376B2.
